biological target: UniProt Q13574; assay: Biochemical DGK IC50 assay, DGKζ ADP-Glo assay; conditions: 0.5 nM enzyme, 140 μM ATP, 80 μM DAG; read-out: DGKζ ADP-Glo assay IC50
Sequence (Q13574 other isoform, or with tags, fused parts or gaps): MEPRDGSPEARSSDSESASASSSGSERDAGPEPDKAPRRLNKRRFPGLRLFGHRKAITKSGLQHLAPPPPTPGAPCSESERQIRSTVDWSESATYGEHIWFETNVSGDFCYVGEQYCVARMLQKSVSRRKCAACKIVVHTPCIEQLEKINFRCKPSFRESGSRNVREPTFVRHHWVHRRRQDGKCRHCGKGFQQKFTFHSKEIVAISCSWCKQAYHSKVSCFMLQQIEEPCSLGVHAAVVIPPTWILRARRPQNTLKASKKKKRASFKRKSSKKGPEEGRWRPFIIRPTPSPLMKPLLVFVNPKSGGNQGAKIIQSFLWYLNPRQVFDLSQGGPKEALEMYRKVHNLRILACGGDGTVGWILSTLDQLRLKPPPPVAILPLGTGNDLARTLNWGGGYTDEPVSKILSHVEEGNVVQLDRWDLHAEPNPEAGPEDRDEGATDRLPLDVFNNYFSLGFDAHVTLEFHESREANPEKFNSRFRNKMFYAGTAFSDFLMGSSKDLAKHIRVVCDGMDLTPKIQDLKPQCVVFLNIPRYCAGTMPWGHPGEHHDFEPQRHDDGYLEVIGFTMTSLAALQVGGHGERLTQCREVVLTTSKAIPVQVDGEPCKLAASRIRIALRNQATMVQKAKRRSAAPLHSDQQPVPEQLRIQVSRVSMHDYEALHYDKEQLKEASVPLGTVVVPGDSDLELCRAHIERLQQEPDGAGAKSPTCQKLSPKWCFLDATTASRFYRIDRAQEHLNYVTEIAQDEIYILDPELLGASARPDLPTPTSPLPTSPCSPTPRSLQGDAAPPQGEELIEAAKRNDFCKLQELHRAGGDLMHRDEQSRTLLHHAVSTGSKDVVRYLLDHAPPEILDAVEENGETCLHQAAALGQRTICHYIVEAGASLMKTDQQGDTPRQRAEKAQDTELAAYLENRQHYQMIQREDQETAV
quantity name: IC50 (nM)
Express your answer in nM, writing the number without its unit.

Worked cases, answers included:
> print(dat)
                                   molecule  unit.string  recorded.result
1  Cc1ccc2ccc(C(C)N3C[C@H](C)N(c4cc(=O)n(C)c5cn(CC#N)nc45)C[C@H]3C)cc2n1 (stereo partly drawn)           nM              495
2  CC[C@H]1CN(C(C)c2ccc3c(c2)OCCO3)[C@H](CC)CN1c1cc(=O)n(C)c2cn(CC#N)nc12 (stereo partly drawn)           nM              7.2
3  CC#CCn1cc2c(n1)c(N1C[C@@H](C)N([C@@H](C)c3ccc4nccnc4c3)C[C@@H]1C)cc(=O)n2C [Compound A22b]           nM               72

Moving on to another molecule below.
Entry under review: CC[C@H]1CN(C(C)c2ccc(C)cc2C(F)(F)F)[C@H](CC)CN1c1cc(=O)n(C)c2cn(CC#N)nc12 (single isomer, unassigned) [Compound A115b] . Reported IC50? 378
